- assay text: Pharmacokinetics in Cynomolgus monkeys, single subcutaneous or intravenous dose
- Assay type: in vivo
- reported conditions: both sexes, cynomolgus monkey, plasma, sc, 190 nmol/kg, single subcutaneous dose 190 nmol/kg, Mean
*1 amine or outer side, *2 acyl side, *3 side chain or, on linkers, in order; H or OH if unused. [ ]: non-standard residue; d: D form. The star is where a group is joined. C20 diacid = O=C(O)CCCCCCCCCCCCCCCCCCC(=O)*; γGlu = O=C(O)[C@H](CCC(=O)[*:2])N[*:1]; εLys = N[C@@H](CCCCN[*:1])C(=O)[*:2]; αMeL = CC(C)C[C@](C)(N)C(=O)O; AEEA = NCCOCCOCC(=O)O; Aib = CC(C)(N)C(=O)O
experimental readout: half-life (days)
Provide the reading as a plain figure in days.

Challenge: Give half-life for the following substance: {C20 diacid-εLys-AEEA-γGlu}-GSPSIVTS[αMeL]DVPT[Aib][αMeL]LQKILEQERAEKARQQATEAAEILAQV-NH2 [SEQ ID NO: 25]
Response given: 8.29

----------
- target of assay: human CRHR2 (Homo sapiens, UniProt Q13324)
- Construct: expressed in transfected cells
- Sequence (Q13324 1-438 isoform Q13324-2): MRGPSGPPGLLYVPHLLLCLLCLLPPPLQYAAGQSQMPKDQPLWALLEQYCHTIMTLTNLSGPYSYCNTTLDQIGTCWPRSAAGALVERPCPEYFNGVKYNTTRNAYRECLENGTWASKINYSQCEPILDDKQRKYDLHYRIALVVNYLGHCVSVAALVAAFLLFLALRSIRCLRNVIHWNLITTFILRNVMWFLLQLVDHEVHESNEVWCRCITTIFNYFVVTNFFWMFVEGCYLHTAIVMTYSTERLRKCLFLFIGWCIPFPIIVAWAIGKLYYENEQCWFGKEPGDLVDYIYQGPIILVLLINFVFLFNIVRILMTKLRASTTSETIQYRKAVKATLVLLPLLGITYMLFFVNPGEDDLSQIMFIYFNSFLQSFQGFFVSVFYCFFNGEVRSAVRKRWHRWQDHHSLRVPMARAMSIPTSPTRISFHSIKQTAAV
- assay text: Human CRHR2 cAMP assay (HTRF) in HEK293 cells stably expressing human CRHR2
- Type: cell-based
- reported conditions: HEK293 cells overexpressing human CRHR2; relative EC50, maximum 10 nM human UCN2; mean ± SE; read-out: hCRHR2 cAMP EC50 (pM, ± SE)
- Description: The corticotropin-releasing hormone (CRH) receptor 1 and 2 (CRHR1 and CRHR2) are GPCRs that were functionally coupled to Gs proteins. Stimulation of these receptors results in an increased production of intracellular cAMP, which can be detected using standard in vitro technologies. In vitro activity of peptides was measured by the amount of cAMP formed in human CRHR1 and CRHR2 overexpressed cells. […]
*1 amine or outer side, *2 acyl side, *3 side chain or, on linkers, in order; H or OH if unused. Side-chain parts run from the residue outwards. [ ]: non-standard residue; d: D form. The star is where a group is joined. C20 diacid = O=C(O)CCCCCCCCCCCCCCCCCCC(=O)*; γGlu = O=C(O)[C@H](CCC(=O)[*:2])N[*:1]; αMeL = CC(C)C[C@](C)(N)C(=O)O; AEEA = NCCOCCOCC(=O)O; Aib = CC(C)(N)C(=O)O; βAla = NCCC(=O)O
experimental readout: EC50 (pM)
Provide the reading as a plain figure in pM.

Solved cases below.
substance	target of assay	units text	EC50
{C20 diacid}-K[AEEA][γGlu]GSPSIVTS[αMeL]DVPT[Aib][αMeL]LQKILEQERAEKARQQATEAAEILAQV-NH2 [SEQ ID NO: 26]	human CRHR2 (Homo sapiens, UniProt Q13324)	pM	6.9
H-GSPSIVTS[αMeL]DVPT[Aib][αMeL]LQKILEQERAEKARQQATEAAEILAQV-NH2 [SEQ ID NO: 27]	human CRHR2 (Homo sapiens, UniProt Q13324)	pM	23.6

Challenge: Give EC50 for the following substance: Ac-GSPSIVTS[αMeL]DVPT[Aib][αMeL]LQKILEQERAEKARQQAK([βAla-Ser-βAla-Ser-γGlu-C20 diacid])EAAEILAQV-NH2 [SEQ ID NO: 10]
Response given: 10.1

----------
- assay text: Pharmacokinetics in Sprague Dawley rats, single subcutaneous or intravenous dose (incl. 10, 30, 100 nmol/kg dose response)
- Assay type: in vivo
- reported conditions: rat, plasma, sc; single subcutaneous dose 190 nmol/kg, male Sprague Dawley rats, mean; read-out: Cmax
*1 amine or outer side, *2 acyl side, *3 side chain or, on linkers, in order; H or OH if unused. [ ]: non-standard residue; d: D form. The star is where a group is joined. C20 diacid = O=C(O)CCCCCCCCCCCCCCCCCCC(=O)*; γGlu = O=C(O)[C@H](CCC(=O)[*:2])N[*:1]; εLys = N[C@@H](CCCCN[*:1])C(=O)[*:2]; αMeL = CC(C)C[C@](C)(N)C(=O)O; AEEA = NCCOCCOCC(=O)O; Aib = CC(C)(N)C(=O)O
experimental readout: Cmax (µM)
Provide the reading as a plain figure in µM.

Challenge: Give Cmax for the following substance: {C20 diacid-εLys-AEEA-γGlu}-GSPSIVTS[αMeL]DVPT[Aib][αMeL]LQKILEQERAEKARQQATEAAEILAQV-NH2 [SEQ ID NO: 25]
Response given: 0.508

----------
- assay text: Pharmacokinetics in Sprague Dawley rats, single subcutaneous or intravenous dose (incl. 10, 30, 100 nmol/kg dose response)
- Format: in vivo
- reported conditions: male, Sprague Dawley, rat, plasma, iv, 183 nmol/kg, single intravenous dose 183 nmol/kg, individual animal
*1 amine or outer side, *2 acyl side, *3 side chain or, on linkers, in order; H or OH if unused. Side-chain parts run from the residue outwards. [ ]: non-standard residue; d: D form. The star is where a group is joined. C20 diacid = O=C(O)CCCCCCCCCCCCCCCCCCC(=O)*; γGlu = O=C(O)[C@H](CCC(=O)[*:2])N[*:1]; εLys = N[C@@H](CCCCN[*:1])C(=O)[*:2]; pGlu = O=C1CC[C@@H](C(=O)O)N1; αMeL = CC(C)C[C@](C)(N)C(=O)O; AEEA = NCCOCCOCC(=O)O; Aib = CC(C)(N)C(=O)O
experimental readout: half-life
In your response, the unit should come after the numeric value.

Challenge: Give half-life for the following substance: [pGlu]GSPSGIVTS[αMeL]DVPT[Aib][αMeL]LQKILEQERAEKARQQAK([γGlu-AEEA-εLys-C20 diacid])EAAEILAQV-NH2 [SEQ ID NO: 22]
Response given: 24.7 h

----------
- assay text: Pharmacokinetics in Cynomolgus monkeys, single subcutaneous or intravenous dose
- Assay type: in vivo
- reported conditions: both sexes, cynomolgus monkey, plasma, sc, single subcutaneous dose 183 nmol/kg, Mean, read-out: Cmax
- Procedure: Plasma concentrations of compounds were determined by LC/MS methods. For each assay, the compound and an internal standard (IS), were extracted from 100% mouse, rat, pig, or monkey plasma (70 μL) using Isopropanol-Methanol. Two distinct layers were formed upon centrifugation with the compound and the IS located in the supernatant layer. […] The column effluent was directed into a Thermo Fisher Scientific Orbitrap (Exploris 240) mass spectrometer for detection and quantitation. […]
*1 amine or outer side, *2 acyl side, *3 side chain or, on linkers, in order; H or OH if unused. Side-chain parts run from the residue outwards. [ ]: non-standard residue; d: D form. The star is where a group is joined. C20 diacid = O=C(O)CCCCCCCCCCCCCCCCCCC(=O)*; γGlu = O=C(O)[C@H](CCC(=O)[*:2])N[*:1]; εLys = N[C@@H](CCCCN[*:1])C(=O)[*:2]; pGlu = O=C1CC[C@@H](C(=O)O)N1; αMeL = CC(C)C[C@](C)(N)C(=O)O; AEEA = NCCOCCOCC(=O)O; Aib = CC(C)(N)C(=O)O
experimental readout: Cmax (nM)
Provide the reading as a plain figure in nM.

Challenge: Give Cmax for the following substance: [pGlu]GSPSGIVTS[αMeL]DVPT[Aib][αMeL]LQKILEQERAEKARQQAK([γGlu-AEEA-εLys-C20 diacid])EAAEILAQV-NH2 [SEQ ID NO: 22]
Response given: 2000

----------
- assay text: Pharmacokinetics in Sprague Dawley rats, single subcutaneous or intravenous dose (incl. 10, 30, 100 nmol/kg dose response)
- Format: in vivo
- reported conditions: male, Sprague Dawley, rat, plasma, sc, 183 nmol/kg, single subcutaneous dose 183 nmol/kg, mean, read-out: CL/F (converted)
*1 amine or outer side, *2 acyl side, *3 side chain or, on linkers, in order; H or OH if unused. Side-chain parts run from the residue outwards. [ ]: non-standard residue; d: D form. The star is where a group is joined. C20 diacid = O=C(O)CCCCCCCCCCCCCCCCCCC(=O)*; γGlu = O=C(O)[C@H](CCC(=O)[*:2])N[*:1]; εLys = N[C@@H](CCCCN[*:1])C(=O)[*:2]; pGlu = O=C1CC[C@@H](C(=O)O)N1; αMeL = CC(C)C[C@](C)(N)C(=O)O; AEEA = NCCOCCOCC(=O)O; Aib = CC(C)(N)C(=O)O
experimental readout: CL/F (mL/h/kg)
Provide the reading as a plain figure in mL/h/kg.

Challenge: Give CL/F for the following substance: [pGlu]GSPSGIVTS[αMeL]DVPT[Aib][αMeL]LQKILEQERAEKARQQAK([γGlu-AEEA-εLys-C20 diacid])EAAEILAQV-NH2 [SEQ ID NO: 22]
Response given: 5.04
